# System: Escherichia coli
# procedure_details: Antibacterial activity against Escherichia coli NCTC 13353 assessed as reduction in bacterial growth
# Assay type: functional
I'd be grateful if you could share measured MIC for these entries.

Send back Escherichia coli MIC of Nc1nc(/C(=N/OCc2cc(=O)c(O)cn2O)C(=O)N[C@@H]2C(=O)N3C(C(=O)O)=CCS[C@H]23)cs1 only.
> 64 µg/mL

// fetch MIC; item: CC(C)(O/N=C(\C(=O)N[C@@H]1C(=O)N2C(C(=O)[O-])=C(C[n+]3ccccc3)CS[C@H]12)c1csc(N)n1)C(=O)O [CEFTAZIDIME] ; system: Escherichia coli
64 µg/mL

# return MIC for C/C=C/C1=C(C(=O)O)N2C(=O)[C@@H](NC(=O)/C(=N\OCc3cc(=O)c(O)cn3O)c3csc(N)n3)[C@H]2SC1 , test system: Escherichia coli
> 64 µg/mL

Specify MIC for C[C@@H](O)[C@H]1C(=O)N2C(C(=O)O)=C(S[C@@H]3CN[C@H](C(=O)N(C)C)C3)[C@H](C)[C@H]12 [MEROPENEM] , system Escherichia coli.
< 0.03 µg/mL

Lab note: record MIC of Nc1nc(/C(=N/OCc2cc(=O)c(O)cn2O)C(=O)N[C@@H]2C(=O)N3C(C(=O)O)=C(Cl)CS[C@H]23)cs1 tested on Escherichia coli.
> 64 µg/mL

Enter MIC (test system Escherichia coli) for COCC1=C(C(=O)O)N2C(=O)[C@@H](NC(=O)/C(=N\OCc3cc(=O)c(O)cn3O)c3csc(N)n3)[C@H]2SC1
> 64 µg/mL

###

# Tested on: Acinetobacter baumannii
# procedure_details: Antibacterial activity against Acinetobacter baumannii NCTC 13304 assessed as reduction in bacterial growth
# Assay type: functional
Task for the reader: assign each of the following compounds its reported MIC.

Tell me its MIC on Acinetobacter baumannii: Nc1nc(/C(=N/OCc2cc(=O)c(O)cn2O)C(=O)N[C@@H]2C(=O)N3C(C(=O)O)=C(Cl)CS[C@H]23)cs1
> 64 µg/mL

Name the recorded MIC of CC(C)(O/N=C(\C(=O)N[C@@H]1C(=O)N2C(C(=O)[O-])=C(C[n+]3ccccc3)CS[C@H]12)c1csc(N)n1)C(=O)O , assay system Acinetobacter baumannii.
64 µg/mL

# assay system Acinetobacter baumannii: give MIC of C/C=C/C1=C(C(=O)O)N2C(=O)[C@@H](NC(=O)/C(=N\OCc3cc(=O)c(O)cn3O)c3csc(N)n3)[C@H]2SC1
> 64 µg/mL

Write MIC of COCC1=C(C(=O)O)N2C(=O)[C@@H](NC(=O)/C(=N\OCc3cc(=O)c(O)cn3O)c3csc(N)n3)[C@H]2SC1 ; system used: Acinetobacter baumannii
> 64 µg/mL

Write down measured MIC (Acinetobacter baumannii) for this compound. Nc1nc(/C(=N/OCc2cc(=O)c(O)cn2O)C(=O)N[C@@H]2C(=O)N3C(C(=O)O)=CCS[C@H]23)cs1
> 64 µg/mL

// fetch MIC for C[C@@H](O)[C@H]1C(=O)N2C(C(=O)O)=C(S[C@@H]3CN[C@H](C(=O)N(C)C)C3)[C@H](C)[C@H]12 ; system: Acinetobacter baumannii
16 µg/mL

###

Assignment: determine reported MIC for the given molecules.
# System: Escherichia coli
# procedure_details: Antibacterial activity against Escherichia coli 15-4 overexpressing extended spectrum beta-lactamases assessed as reduction in bacterial growth
# Format: functional

Quick one: give measured MIC for COCC1=C(C(=O)O)N2C(=O)[C@@H](NC(=O)/C(=N\OCc3cc(=O)c(O)cn3O)c3csc(N)n3)[C@H]2SC1
> 64 µg/mL

Return reported MIC. Input molecule: CC(C)(O/N=C(\C(=O)N[C@@H]1C(=O)N2C(C(=O)[O-])=C(C[n+]3ccccc3)CS[C@H]12)c1csc(N)n1)C(=O)O
16 µg/mL

Supply MIC value. Item: C/C=C/C1=C(C(=O)O)N2C(=O)[C@@H](NC(=O)/C(=N\OCc3cc(=O)c(O)cn3O)c3csc(N)n3)[C@H]2SC1
> 64 µg/mL

Specify MIC for Nc1nc(/C(=N/OCc2cc(=O)c(O)cn2O)C(=O)N[C@@H]2C(=O)N3C(C(=O)O)=C(Cl)CS[C@H]23)cs1 and stop.
> 64 µg/mL

Consider the molecule Nc1nc(/C(=N/OCc2cc(=O)c(O)cn2O)C(=O)N[C@@H]2C(=O)N3C(C(=O)O)=CCS[C@H]23)cs1 . State its measured MIC.
> 64 µg/mL

Cited source: ChEMBL document CHEMBL4813981
